Data origin: patent US20220324934A1

TARGET ENTITY: T1, IL-2Rβ (UniProt P14784 27-240, limits assumed, biotinylated (site not stated))
T1 construct: also called CD122; IL-2Rbeta
T1 sequence (looked up): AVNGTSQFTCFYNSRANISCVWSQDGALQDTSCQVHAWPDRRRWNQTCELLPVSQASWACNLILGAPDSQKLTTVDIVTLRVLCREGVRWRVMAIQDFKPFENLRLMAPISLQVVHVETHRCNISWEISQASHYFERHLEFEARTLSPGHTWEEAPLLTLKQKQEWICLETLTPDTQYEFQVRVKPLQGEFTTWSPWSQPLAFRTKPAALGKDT
ASSAY PROTOCOL: SPR Biacore T100, kinetic fit; biotinylated IL-2Rβ on chip
MEASUREMENT NAME: koff (s⁻¹)
Number in s⁻¹, nothing else.

1. in silico designed IL-2 variant SEQ ID NO: 15, MSA fusion protein (ligand, not shown: large carriers; small tags and cut ends) APTSSSTKKTQLQLEHLLLDLQMILNMLNNYDNPKLTRMLTFKFYMPKKATELKHLQCLEEELKPLEEALNQAQSKNFHLDPRDLISNINVIVLELKGSETTFMCEYADETATIIEFLNRWITFCQSIISTLT = 0.064
2. in silico designed IL-2 variant SEQ ID NO: 8, MSA fusion protein (ligand, not shown: large carriers; small tags and cut ends) APTSSSTKKTQLQLEHLLLDLQMILNMLNNYDNPKLTRLLTFKFYMPKKATSLKHLQCLEEELKPLEEALNAADSTDERIRDVVSNINVFVLELKGSETTFMCEYADETATIIEFLNRWITFCQSIISTLT = 0.0044

Find the recorded koff belonging to in silico designed IL-2 variant SEQ ID NO: 13, MSA fusion protein (ligand, not shown: large carriers; small tags and cut ends) APTSSSTKKTQLQLEHLLLDLQMILNMLNNASNPSLTRMLTFKFYMPKKATELKHLQCLEEELKPLEEALNTAADDQDKIRDLISNINVIVLELKGSETTFMCEYADETATIIEFLNRWITFCQSIISTLT and report it.
0.036

For the binder shown here, in silico designed IL-2 variant SEQ ID NO: 1, MSA fusion protein (ligand, not shown: large carriers; small tags and cut ends) APTSSSTKKTQLQLEHLLLDLQMILNMLNNYDNPKLTRLLTFKFYMPKKATSLKHLQCLEEELKPLEEALNAAGDDPKTIRDVVSNINVFVLELKGSETTFMCEYADETATIIEFLNRWITFCQSIISTLT , give the reported koff.
0.0066
